This collection of values is drawn from ChEMBL document CHEMBL2062428.

- tested system: Prostaglandin G/H synthase 2 (Mus musculus)
- assay procedure: Inhibition of mouse COX-2 using [14C] arachidonic acid as substrate at 4 uM preincubated for 17 mins before substrate addition measured after 3 mins by thin-layer chromatographic analysis
Parameter: inhibition. Scope: all listed entries.

molecule	tested system	inhibition
O=C(O)CC1=C/C(=C\c2ccc(-c3ccc(F)cc3)cc2)c2ccc(F)cc21	Prostaglandin G/H synthase 2 (Mus musculus)	16%
COC(=O)CC1=C/C(=C\c2ccc(SC)cc2)c2ccc(F)cc21	Prostaglandin G/H synthase 2 (Mus musculus)	9%
CSc1ccc(/C=C2\C=C(CC(=O)O)c3cc(F)ccc32)cc1	Prostaglandin G/H synthase 2 (Mus musculus)	10%
C#Cc1ccc(/C=C2\C=C(CC(=O)O)c3cc(F)ccc32)cc1	Prostaglandin G/H synthase 2 (Mus musculus)	17%
CCOC(=O)C(C)(C)C1=C/C(=C\c2ccc(-c3ccccc3)cc2)c2ccc(F)cc21	Prostaglandin G/H synthase 2 (Mus musculus)	2%
CSc1ccc(/C=C2\C=C(CC(N)=O)c3cc(F)ccc32)cc1	Prostaglandin G/H synthase 2 (Mus musculus)	5%
O=C(O)CC1=C/C(=C\c2ccc(-c3ccccc3)cc2)c2ccc(F)cc21	Prostaglandin G/H synthase 2 (Mus musculus)	1%
